Tested on: Plasmodium falciparum
assayComment: Antimalarial activity against Plasmodium falciparum 3D7A infected in red blood cells assessed as inhibition of parasite growth after 24 hrs by [3H]hypoxanthine incorporation assay
Assay type: functional, organism-based
valueKind: pIC50
Keep it numeric: pIC50 is minus log10 of the concentration in mol/L.

- moleculeSmiles: "O=C(NCCCNc1nc2ccccc2[nH]1)c1cc(Cl)cc(Cl)c1"
  pIC50: 7.03

Let us examine a further case.
Returns the measured pIC50 for the input compound. Input: "O=C(NCCCNc1nc2ccccc2[nH]1)c1ccccc1Cl"
5.98

* * *

Test system: Plasmodium falciparum
assayComment: Antimalarial activity against Plasmodium falciparum 3D7A infected in red blood cells assessed as inhibition of parasite growth after 24 hrs by [3H]hypoxanthine incorporation assay
Format: functional, organism-based
valueKind: IC50 (µM)
Respond numerically; units are µM and should not be typed.

Worked examples, 3 compounds total:
- compound: "O=C(NCCCNc1nc2ccccc2[nH]1)c1ccccc1"
  IC50, µM: 3.17
- compound: "CC(CCNC(=O)c1cc(Cl)cc(Cl)c1)Nc1nc2ccccc2[nH]1 (stereo unspecified)"
  IC50, µM: 1.58
- compound: "O=C(NCCCNc1nc2ccccc2[nH]1)c1ccc(CN2CCCC2)cc1"
  IC50, µM: 2.3

Find IC50 (Plasmodium falciparum) for the entry "O=C(NCCCNc1nc2ccccc2[nH]1)c1cccc(OC(F)(F)F)c1"
0.37

Find IC50 (Plasmodium falciparum) for the entry O=C(NCC(O)CNc1nc2ccccc2[nH]1)c1cc(Cl)cc(Cl)c1 (stereo unspecified)
1.38

Find IC50 (Plasmodium falciparum) for the entry "O=C(Nc1cccc(-c2nc3ccccc3[nH]2)c1)c1cc(Cl)cc(Cl)c1"
1.52

Find IC50 (Plasmodium falciparum) for the entry "COC(=O)c1cccc(C(=O)NCCCNc2nc3ccccc3[nH]2)c1"
0.63

Find IC50 (Plasmodium falciparum) for the entry "O=C(NCCCNc1nc2ccccc2[nH]1)c1cccc(C(F)(F)F)c1"
0.14

Find IC50 (Plasmodium falciparum) for the entry CC(CNC(=O)c1cc(Cl)cc(Cl)c1)CNc1nc2ccccc2[nH]1 (stereo unspecified)
0.52

Find IC50 (Plasmodium falciparum) for the entry "O=C(NCCCNc1nc2cccnc2[nH]1)c1cc(Cl)cc(Cl)c1"
2.54

Find IC50 (Plasmodium falciparum) for the entry "O=C(NCCCNc1nc2ccccc2[nH]1)c1ccc2c(c1)OCO2"
3.36

Find IC50 (Plasmodium falciparum) for the entry "COc1cccc(C(=O)NCCCNc2nc3ccccc3[nH]2)c1"
0.93

* * *

assayComment: Kinetic solubility of the compound in DMSO/phosphate buffered saline at pH 7.4 by chemiluminescent nitrogen detection method
Assay type: physicochemical
conditionDescription: read-out: Kinetic_solubility
Entry flag: Criterion met if solubility kinetic reaches 200 µM; Criterion not met if it does not.

Previously resolved entries follow.
- moleculeSmiles: "O=C(NCCCNc1nc2ccccc2[nH]1)c1ccc(CN2CCCC2)cc1"
  classification: "Criterion met"
- moleculeSmiles: "CC(C)(C)OC(=O)N1CCC(C(=O)NCCCNc2nc3ccccc3[nH]2)CC1"
  classification: "Criterion met"
- moleculeSmiles: "O=C(Nc1cccc(-c2nc3ccccc3[nH]2)c1)c1cc(Cl)cc(Cl)c1"
  classification: "Criterion not met"

For this compound, is measured solubility kinetic 200 µM or higher? "O=C(NCCCNc1nc2ccccc2[nH]1)c1cc(Cl)cc(Cl)c1"
Criterion met

For this compound, is measured solubility kinetic 200 µM or higher? "COC(=O)c1ccc2[nH]c(NCCCNC(=O)c3cc(Cl)cc(Cl)c3)nc2c1"
Criterion not met

For this compound, is measured solubility kinetic 200 µM or higher? "O=C(NCCCNc1nc2ccccc2[nH]1)c1ccnc(C(F)(F)F)c1"
Criterion met

* * *

assayComment: Oral bioavailability in CD1 mouse at 10 mg/kg administered via gavage by LC-MS/MS analysis
Assay type: ADME, organism-based
conditionDescription: in vivo
valueKind: bioavailability (%)
Respond numerically; units are % and should not be typed.

Returns the measured bioavailability for the input molecule. Input: "O=C(NCCCNc1nc2ccccc2[nH]1)c1cc(Cl)cc(Cl)c1"
81

* * *

assayComment: Cytotoxicity against human HepG2 cells by ATP bioluminescene method
Assay type: cell-based
conditionDescription: read-out: TC50 (the source's name)
valueKind: CC50

Returns the measured CC50 for the input compound. Input: "O=C(NCCCNc1nc2ccccc2[nH]1)c1ccc(CN2CCCC2)cc1"
> 100 µM

Returns the measured CC50 for the input compound. Input: "O=C(NCCCNc1nc2ccccc2[nH]1)c1ccnc(C(F)(F)F)c1"
> 100 µM

Returns the measured CC50 for the input compound. Input: "CC(C)(C)OC(=O)N1CCC(C(=O)NCCCNc2nc3ccccc3[nH]2)CC1"
> 100 µM

* * *

Catalogue of pIC50 readings, one per entry.
System: Plasmodium falciparum
assayComment: Antimalarial activity against Plasmodium falciparum 3D7A infected in red blood cells assessed as inhibition of parasite growth after 24 hrs by [3H]hypoxanthine incorporation assay
Type: functional, organism-based
Keep it numeric: pIC50 is minus log10 of the concentration in mol/L.

Worked examples, 5 molecules total:
- moleculeSmiles: "O=C(NCCCNc1nc2ccccc2[nH]1)C1CCCCC1"
  valueKind: "pIC50"
  reportedValue: 5.74
- moleculeSmiles: "CCc1nc(N)nc(N)c1-c1ccc(Cl)cc1"
  valueKind: "pIC50"
  reportedValue: 7.17
- moleculeSmiles: "COC(=O)c1ccc2[nH]c(NCCCNC(=O)c3cc(Cl)cc(Cl)c3)nc2c1"
  valueKind: "pIC50"
  reportedValue: 6.82
- moleculeSmiles: "O=C(NCCCNc1nc2ccccc2[nH]1)c1ccc2c(c1)CCO2"
  valueKind: "pIC50"
  reportedValue: 5.49
- moleculeSmiles: "O=C(NCCCNc1nc2ccccc2[nH]1)c1cc(Cl)ccc1Cl"
  valueKind: "pIC50"
  reportedValue: 5.92

Returns the measured pIC50 for the input molecule. Input: "N#Cc1ccc2[nH]c(NCCCNC(=O)c3cc(Cl)cc(Cl)c3)nc2c1"
5.83

Returns the measured pIC50 for the input molecule. Input: "CN(C)Cc1ccc(C(=O)NCCCNc2nc3ccccc3[nH]2)cc1"
5.65

Returns the measured pIC50 for the input molecule. Input: "O=C(Cc1cccc(Cl)c1)NCCCNc1nc2ccccc2[nH]1"
6.18

Returns the measured pIC50 for the input molecule. Input: "O=C(NCCCNc1nc2ccccc2[nH]1)c1cccc(Cl)c1"
6.52

Returns the measured pIC50 for the input molecule. Input: "O=C(NCCCNc1nc2ccccc2[nH]1)c1cncc(Cl)c1"
6.34

Returns the measured pIC50 for the input molecule. Input: "COc1c(Cl)cc(C(=O)NCCCNc2nc3ccccc3[nH]2)cc1Cl"
7.00

Returns the measured pIC50 for the input molecule. Input: "O=C(NCCCNc1nc2ccccc2[nH]1)c1ccc2c(c1)OCCO2"
5.78

Returns the measured pIC50 for the input molecule. Input: "O=C(CCNC(=O)c1cc(Cl)cc(Cl)c1)Nc1nc2ccccc2[nH]1"
5.38

Returns the measured pIC50 for the input molecule. Input: "O=C(c1cc(Cl)cc(Cl)c1)N1CCN(c2nc3ccccc3[nH]2)CC1"
5.60

Returns the measured pIC50 for the input molecule. Input: "O=C(NCCCNc1nc2ccncc2[nH]1)c1cc(Cl)cc(Cl)c1"
5.97

Returns the measured pIC50 for the input molecule. Input: "O=C(NCCCNc1nc2cc(F)ccc2[nH]1)c1cc(Cl)cc(Cl)c1"
6.92

Returns the measured pIC50 for the input molecule. Input: "Cc1ccc(C(=O)NCCCNc2nc3ccccc3[nH]2)o1"
5.65

Returns the measured pIC50 for the input molecule. Input: "N#Cc1cccc(C(=O)NCCCNc2nc3ccccc3[nH]2)c1"
6.42

Returns the measured pIC50 for the input molecule. Input: "O=C(NCCCNc1nc2ccccc2[nH]1)c1cc(F)cc(F)c1"
6.49

Returns the measured pIC50 for the input molecule. Input: "COc1cc(OC)cc(C(=O)NCCCNc2nc3ccccc3[nH]2)c1"
6.48
